Tested on: RIVA
Assay: growth inhibition by drug alone (1 - RLU/untreated control) (fraction); higher = stronger inhibition
Conditions: 10 nM; time (day): 6; 177Lu-lilotomab satetraxetan 0 ug/ml
Decide by growth inhibition by drug alone: equal to or exceeding -0.3 means y, less means n.

                                   molecule  cat
0  CN(NC(=O)CC(=O)NN(C)C(=S)c1ccccc1)C(=S)c1ccccc1    y
1  O=C(c1cc(Cc2n[nH]c(=O)c3ccccc23)ccc1F)N1CCN(C(=O)C2CC2)CC1    y
2  N#Cc1c(O)c2c(-c3ccc(-c4ccccc4O)cc3)csc2[nH]c1=O    n
3  CCCCCOC(=O)Nc1nc(=O)n([C@@H]2O[C@H](C)[C@@H](O)[C@H]2O)cc1F    n
4  CC#C[C@]1(O)CC[C@H]2[C@@H]3CCC4=CC(=O)CCC4=C3[C@@H](c3ccc(N(C)C)cc3)C[C@@]21C    y
5  CN(C)CCCN=c1c2ccccc2n(C)c2[nH]c(=O)n(C)c(=O)c12    y

## Task Test whether the molecule C[C@]12CC[C@@H]3c4ccc(O)cc4CC[C@H]3[C@@H]1CC[C@@H]2O records growth inhibition by drug alone of -0.3 or higher.
## Result y

## Task Please check the record O=c1c(O)c(-c2ccc(O)c(O)c2)oc2cc(O)cc(O)c12 [Quercetin (Sophoretin)] and state if its growth inhibition by drug alone is at or above -0.3.
## Result n

## Task Test whether the molecule NC(=O)c1ccc(I)c([N+](=O)[O-])c1 records growth inhibition by drug alone of -0.3 or higher.
## Result n

## Task Could you tell me if the measured growth inhibition by drug alone of Nc1ncn([C@H]2C[C@H](O)[C@@H](CO)O2)c(=O)n1 reaches -0.3 or more?
## Result n

## Task Confirm if growth inhibition by drug alone reported for the molecule O=C(NCCS(=O)(=O)c1ccc(C(F)(F)F)cn1)c1ccc(Cl)cc1 is -0.3 or above.
## Result y

* * *

Test system: U-2932
Assay: growth inhibition by drug alone (1 - RLU/untreated control) (fraction); higher = stronger inhibition
Conditions: 10 nM; time (day): 6; 177Lu-lilotomab satetraxetan 0 ug/ml
Counter-ions that a name gives are not always drawn.
parameter: growth inhibition by drug alone
Response field accepts a number only; no unit should be typed.

>>> print(df.to_string())
                                   compound  meas_value
0  Nc1ccn([C@@H]2O[C@H](CO)[C@@H](O)[C@@H]2O)c(=O)n1     -0.0808

## Task Give the measured growth inhibition by drug alone of C#Cc1cccc(Nc2ncnc3cc(OCCOC)c(OCCOC)cc23)c1 [Erlotinib HCl] .
## Result 0.0458

## Task Please look up its growth inhibition by drug alone: CN(C)Cc1c(C(=O)NCCOc2ccc(C(=O)NO)cc2)oc2ccccc12
## Result -0.0158

## Task growth inhibition by drug alone lookup needed for O=C1NC(=O)/C(=C\c2cccc(C(F)(F)F)c2)S1 , thanks.
## Result -0.158

## Task growth inhibition by drug alone lookup needed for FC(F)c1nc2ccccc2n1-c1nc(N2CCOCC2)nc(N2CCOCC2)n1 , thanks.
## Result 0.0263

## Task Field request: growth inhibition by drug alone | item: COC(=O)Nc1nc2cc(C(=O)c3cccs3)ccc2[nH]1
## Result -0.0733

## Task Using the record for O=C(Cc1ccc(-c2ccc(OCCN3CCOCC3)cc2)cn1)NCc1ccccc1 , report its growth inhibition by drug alone.
## Result 0.0449

## Task // returns reported growth inhibition by drug alone for input CC(=O)O[C@]1(C(C)=O)CC[C@H]2[C@@H]3C[C@H](C)C4=CC(=O)CC[C@]4(C)[C@H]3CC[C@@]21C [Medroxyprogesterone acetate]
## Result -0.207
